Target: Polyunsaturated fatty acid 5-lipoxygenase (Homo sapiens)
Sequence (P09917 whole entry): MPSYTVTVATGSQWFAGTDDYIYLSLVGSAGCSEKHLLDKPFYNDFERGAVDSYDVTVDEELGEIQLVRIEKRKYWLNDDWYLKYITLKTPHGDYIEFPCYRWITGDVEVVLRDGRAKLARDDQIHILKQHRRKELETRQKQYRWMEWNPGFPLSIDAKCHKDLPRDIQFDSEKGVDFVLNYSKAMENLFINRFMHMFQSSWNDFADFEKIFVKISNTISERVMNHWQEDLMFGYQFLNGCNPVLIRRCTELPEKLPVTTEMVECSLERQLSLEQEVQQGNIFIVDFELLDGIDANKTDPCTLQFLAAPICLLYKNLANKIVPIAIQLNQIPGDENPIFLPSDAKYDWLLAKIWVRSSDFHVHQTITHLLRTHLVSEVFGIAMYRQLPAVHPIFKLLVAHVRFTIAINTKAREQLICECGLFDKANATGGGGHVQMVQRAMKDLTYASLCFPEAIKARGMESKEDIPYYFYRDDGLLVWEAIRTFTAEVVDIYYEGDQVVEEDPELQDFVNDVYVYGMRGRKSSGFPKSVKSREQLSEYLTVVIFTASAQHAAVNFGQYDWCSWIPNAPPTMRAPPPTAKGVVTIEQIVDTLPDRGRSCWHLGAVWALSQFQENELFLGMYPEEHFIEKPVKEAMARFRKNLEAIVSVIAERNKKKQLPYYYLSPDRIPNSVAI
Experiment: Inhibition of human recombinant 5-lipoxygenase-mediated product formation from arachidonic acid after 5 to 10 mins by HPLC analysis
Reported pIC50 values follow for various compounds
Reminder that pIC50 is minus the log10 of a molar concentration.

- compound: "CCCCC(Sc1nc(OCCC2CCCC2)cc(OCCC2CCCC2)n1)C(=O)O (stereo not given)"
  pIC50: 5.17

Now for another entry.
According to the records, this compound CCCCC(Sc1nc(OCCc2ccccc2)cc(OCCc2ccccc2)n1)C(=O)O (stereo not given) displays pIC50 of 5.33

* * *

Target: Prostaglandin E synthase (Homo sapiens) (UniProt O14684)
Sequence (whole entry): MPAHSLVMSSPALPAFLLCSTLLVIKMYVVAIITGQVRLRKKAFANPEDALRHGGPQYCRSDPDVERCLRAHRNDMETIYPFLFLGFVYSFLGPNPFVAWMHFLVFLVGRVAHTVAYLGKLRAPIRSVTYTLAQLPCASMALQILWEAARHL
Experiment: Inhibition of mPGES-1 in human IL-1beta-stimulated A549 cell microsomes assessed as residual activity by measuring reduction of PGE2 formation from PGH2 at 10 uM after 15 mins by RP-HPLC analysis
Conditions: Microsome
assay-endpoint: Activity (%)
Give the value in % but do not write % after it.

Take a look at these entries with their results.
- compound: "CCCCC(Sc1nc(OCCc2ccc(OC)cc2)cc(OCCc2ccc(OC)cc2)n1)C(=O)O (stereo not drawn)"
  measurement-units: "%"
  test-result: 63.7
- compound: "CCCCC(Cc1ccc(OCCc2ccccc2)cc1OCCc1ccccc1)C(=O)O (stereo not drawn)"
  measurement-units: "%"
  test-result: 90.1

Case CCCCC(Sc1nc(OCCC2CCCCCC2)cc(OCCC2CCCCCC2)n1)C(=O)O (stereo not drawn) , Prostaglandin E synthase (Homo sapiens) (UniProt O14684), Activity recorded as 62.4

* * *

Reported pIC50 values follow for various molecules
biological target: Prostaglandin E synthase (Homo sapiens, UniProt O14684); assay: Inhibition of mPGES-1 in human IL-1beta-stimulated A549 cell microsomes assessed as reduction of PGE2 formation from PGH2 after 15 mins by RP-HPLC analysis
Reminder that pIC50 is minus the log10 of a molar concentration.

Take a look at these entries with their results.
- molecule: "CCCCC(Sc1cc(OCCc2ccccc2)cc(OCCc2ccccc2)c1)C(=O)O (stereo not given)"
  pIC50: 5.34
- molecule: "CCCCC(Sc1nc(OCCc2ccsc2)cc(OCCc2ccsc2)n1)C(=O)O (stereo not given)"
  pIC50: 5.19

Now for another entry.
According to the records, this molecule CCCCC(Sc1nc(OCCCCc2ccccc2)cc(OCCCCc2ccccc2)n1)C(=O)O (stereo not given) displays pIC50 of 6.05
